measurementTarget: α6β2γ2 GABAA receptor (Homo sapiens, UniProt P47870+Q16445)
Sequence (Q16445 20-453, one chain of several): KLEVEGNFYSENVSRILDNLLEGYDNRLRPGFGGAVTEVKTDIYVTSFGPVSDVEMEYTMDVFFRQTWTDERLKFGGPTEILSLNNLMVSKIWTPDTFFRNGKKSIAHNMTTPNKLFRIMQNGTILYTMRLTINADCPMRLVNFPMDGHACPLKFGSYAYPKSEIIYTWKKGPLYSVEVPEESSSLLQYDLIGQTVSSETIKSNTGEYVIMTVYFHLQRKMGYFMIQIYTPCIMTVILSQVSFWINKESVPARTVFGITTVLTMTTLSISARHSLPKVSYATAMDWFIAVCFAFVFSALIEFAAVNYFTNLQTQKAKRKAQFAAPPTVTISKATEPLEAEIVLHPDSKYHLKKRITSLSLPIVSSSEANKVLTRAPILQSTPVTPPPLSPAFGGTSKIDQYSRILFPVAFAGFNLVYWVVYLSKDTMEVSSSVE
Sequence (P47870 25-512 limits assumed, one chain of several): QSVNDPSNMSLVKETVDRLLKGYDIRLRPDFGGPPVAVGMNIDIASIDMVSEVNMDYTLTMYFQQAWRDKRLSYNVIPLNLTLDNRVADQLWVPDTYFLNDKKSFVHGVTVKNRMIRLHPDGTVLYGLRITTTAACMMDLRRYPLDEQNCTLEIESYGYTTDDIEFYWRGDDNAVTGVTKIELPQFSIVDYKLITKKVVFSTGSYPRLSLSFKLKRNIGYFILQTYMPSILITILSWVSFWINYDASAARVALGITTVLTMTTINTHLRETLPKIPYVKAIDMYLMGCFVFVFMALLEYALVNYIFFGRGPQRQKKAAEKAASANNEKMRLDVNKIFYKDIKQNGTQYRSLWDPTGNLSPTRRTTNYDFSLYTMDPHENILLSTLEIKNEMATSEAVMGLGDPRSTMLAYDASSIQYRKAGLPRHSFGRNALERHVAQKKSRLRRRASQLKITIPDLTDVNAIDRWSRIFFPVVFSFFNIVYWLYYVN
measurementNotes: FLIPR modulation of GABA response in cells expressing GABAA receptor subtype
testSettings: in presence of GABA, — = value not measurable
Method: Cells expressing the indicated GABAA receptor subtype were exposed to gamma-aminobutyric acid in the presence of varying concentrations of either CV-10155 or SPNC-019, calcium flux was measured using a fluorometric imaging plate reader (FLIPR), and EC50 values for compounds were determined.
measurementName: EC50 (nM)

smilesCode	unitString	observed
C[C@@]1(O)CC[C@@]2(C)[C@@H](CC[C@@H]3[C@@H]2CC[C@]2(C)[C@@H](C(=O)Cn4cc(C#N)cn4)CC[C@@H]32)C1	nM	1100

* * *

measurementTarget: α4β3γ2 GABAA receptor (Homo sapiens, UniProt P28472+P48169)
Sequence (P48169 36-554, one chain of several): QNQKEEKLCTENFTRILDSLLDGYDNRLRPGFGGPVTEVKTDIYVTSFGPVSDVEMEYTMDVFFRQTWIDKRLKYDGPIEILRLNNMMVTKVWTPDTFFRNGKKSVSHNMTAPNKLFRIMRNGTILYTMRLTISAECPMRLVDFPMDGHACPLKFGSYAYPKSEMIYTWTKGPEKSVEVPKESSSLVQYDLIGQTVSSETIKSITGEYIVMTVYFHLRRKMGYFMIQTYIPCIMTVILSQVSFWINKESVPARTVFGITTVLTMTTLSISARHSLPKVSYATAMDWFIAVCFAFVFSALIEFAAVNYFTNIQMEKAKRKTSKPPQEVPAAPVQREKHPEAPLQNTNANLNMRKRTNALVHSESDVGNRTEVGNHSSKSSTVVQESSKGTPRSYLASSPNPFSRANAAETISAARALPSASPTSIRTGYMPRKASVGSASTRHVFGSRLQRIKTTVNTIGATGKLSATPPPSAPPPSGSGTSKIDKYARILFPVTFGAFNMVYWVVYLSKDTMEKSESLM
measurementNotes: FLIPR modulation of GABA response in cells expressing GABAA receptor subtype
testSettings: in presence of GABA, — = value not measurable

smilesCode	measurementTarget	EC50 (nM)
C[C@@]1(O)CC[C@@]2(C)[C@@H](CC[C@@H]3[C@@H]2CC[C@]2(C)[C@@H](C(=O)Cn4cc(C#N)cn4)CC[C@@H]32)C1	α4β3γ2 GABAA receptor (Homo sapiens, UniProt P28472+P48169)	1330

* * *

measurementTarget: α2β3γ2 GABAA receptor (Homo sapiens, UniProt P28472+P47869)
Sequence (P47869 29-451): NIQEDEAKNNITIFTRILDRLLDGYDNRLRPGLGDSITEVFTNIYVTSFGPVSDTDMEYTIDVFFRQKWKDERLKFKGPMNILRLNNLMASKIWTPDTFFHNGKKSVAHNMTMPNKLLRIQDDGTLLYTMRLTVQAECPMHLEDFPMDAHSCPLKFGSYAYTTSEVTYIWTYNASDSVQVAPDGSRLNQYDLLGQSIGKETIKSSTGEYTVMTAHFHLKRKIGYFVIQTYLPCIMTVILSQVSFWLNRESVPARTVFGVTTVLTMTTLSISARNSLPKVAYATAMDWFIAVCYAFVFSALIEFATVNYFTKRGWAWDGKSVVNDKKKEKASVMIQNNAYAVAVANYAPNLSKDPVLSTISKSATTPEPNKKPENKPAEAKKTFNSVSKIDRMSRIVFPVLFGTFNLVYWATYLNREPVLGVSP
Sequence (P28472 26-473): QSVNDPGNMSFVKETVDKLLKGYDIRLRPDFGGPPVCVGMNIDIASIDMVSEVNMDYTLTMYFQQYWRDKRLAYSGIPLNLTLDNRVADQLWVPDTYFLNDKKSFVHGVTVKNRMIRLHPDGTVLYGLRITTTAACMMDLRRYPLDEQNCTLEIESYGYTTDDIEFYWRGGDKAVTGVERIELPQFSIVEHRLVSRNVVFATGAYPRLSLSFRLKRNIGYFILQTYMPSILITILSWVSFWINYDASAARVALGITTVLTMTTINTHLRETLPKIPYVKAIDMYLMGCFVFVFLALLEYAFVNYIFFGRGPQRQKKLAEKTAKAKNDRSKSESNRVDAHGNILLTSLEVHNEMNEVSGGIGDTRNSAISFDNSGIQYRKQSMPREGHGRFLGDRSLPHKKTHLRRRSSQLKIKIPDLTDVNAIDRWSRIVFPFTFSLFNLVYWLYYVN
Sequence (P18507 40-475 partner): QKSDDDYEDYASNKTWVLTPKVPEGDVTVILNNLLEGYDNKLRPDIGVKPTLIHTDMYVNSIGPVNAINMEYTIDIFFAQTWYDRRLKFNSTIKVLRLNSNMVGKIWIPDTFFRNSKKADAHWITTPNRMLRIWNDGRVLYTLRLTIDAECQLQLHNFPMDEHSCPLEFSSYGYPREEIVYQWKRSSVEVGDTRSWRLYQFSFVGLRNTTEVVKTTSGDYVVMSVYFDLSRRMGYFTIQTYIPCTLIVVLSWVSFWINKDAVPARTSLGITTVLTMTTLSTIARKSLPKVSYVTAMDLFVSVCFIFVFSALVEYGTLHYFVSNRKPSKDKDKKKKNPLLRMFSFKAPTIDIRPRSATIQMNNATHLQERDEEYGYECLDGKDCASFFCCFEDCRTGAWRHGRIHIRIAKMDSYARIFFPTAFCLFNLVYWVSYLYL
measurementNotes: FLIPR modulation of GABA response in cells expressing GABAA receptor subtype
testSettings: in presence of GABA, — = value not measurable
measurementName: EC50 (µM)

smilesCode	measurementTarget	observed
C[C@@]1(O)CC[C@@]2(C)[C@@H](CC[C@@H]3[C@@H]2CC[C@]2(C)[C@@H](C(=O)Cn4cc(C#N)cn4)CC[C@@H]32)C1	α2β3γ2 GABAA receptor (Homo sapiens, UniProt P28472+P47869)	0.296

* * *

measurementTarget: α3β1γ2 GABAA receptor (Homo sapiens, UniProt P18505+P34903)
Sequence (P34903 29-492): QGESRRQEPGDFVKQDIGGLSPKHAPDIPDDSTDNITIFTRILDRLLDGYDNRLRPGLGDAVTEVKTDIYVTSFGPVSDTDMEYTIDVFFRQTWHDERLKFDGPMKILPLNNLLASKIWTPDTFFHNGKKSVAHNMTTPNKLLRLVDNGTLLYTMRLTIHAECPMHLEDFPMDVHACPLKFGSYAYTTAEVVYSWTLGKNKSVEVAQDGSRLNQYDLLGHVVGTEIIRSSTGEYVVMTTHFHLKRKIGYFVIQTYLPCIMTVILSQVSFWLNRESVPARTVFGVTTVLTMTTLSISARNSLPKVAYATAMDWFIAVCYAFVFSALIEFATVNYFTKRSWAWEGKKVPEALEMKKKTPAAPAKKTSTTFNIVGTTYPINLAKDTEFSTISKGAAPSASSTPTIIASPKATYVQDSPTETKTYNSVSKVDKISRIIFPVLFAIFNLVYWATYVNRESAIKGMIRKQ
Sequence (P18505 26-474): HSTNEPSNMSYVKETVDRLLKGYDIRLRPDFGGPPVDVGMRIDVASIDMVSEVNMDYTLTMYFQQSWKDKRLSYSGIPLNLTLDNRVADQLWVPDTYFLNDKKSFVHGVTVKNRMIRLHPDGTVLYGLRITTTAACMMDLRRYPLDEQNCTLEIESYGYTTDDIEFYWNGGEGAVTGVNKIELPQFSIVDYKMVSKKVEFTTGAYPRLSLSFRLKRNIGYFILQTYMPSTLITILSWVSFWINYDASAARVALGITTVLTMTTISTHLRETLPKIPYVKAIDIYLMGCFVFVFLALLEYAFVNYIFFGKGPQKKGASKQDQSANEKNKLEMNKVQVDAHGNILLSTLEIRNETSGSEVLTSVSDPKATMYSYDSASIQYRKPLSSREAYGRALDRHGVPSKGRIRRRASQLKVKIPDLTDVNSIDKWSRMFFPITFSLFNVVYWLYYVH
Sequence (P18507 40-475 partner): as the sequence (P18507 40-475 partner) above
measurementNotes: FLIPR modulation of GABA response in cells expressing GABAA receptor subtype
testSettings: in presence of GABA, — = value not measurable
pEC50: −log10 of the molar value.
measurementName: pEC50

molecule	observed
C[C@@]1(O)CC[C@@]2(C)[C@@H](CC[C@@H]3[C@@H]2CC[C@]2(C)[C@@H](C(=O)Cn4cc(C#N)cn4)CC[C@@H]32)C1 [CV-10155]	6.02

* * *

measurementTarget: α5β2γ2 GABAA receptor (Homo sapiens, UniProt P31644+P47870)
Sequence (P31644 32-462, one chain of several): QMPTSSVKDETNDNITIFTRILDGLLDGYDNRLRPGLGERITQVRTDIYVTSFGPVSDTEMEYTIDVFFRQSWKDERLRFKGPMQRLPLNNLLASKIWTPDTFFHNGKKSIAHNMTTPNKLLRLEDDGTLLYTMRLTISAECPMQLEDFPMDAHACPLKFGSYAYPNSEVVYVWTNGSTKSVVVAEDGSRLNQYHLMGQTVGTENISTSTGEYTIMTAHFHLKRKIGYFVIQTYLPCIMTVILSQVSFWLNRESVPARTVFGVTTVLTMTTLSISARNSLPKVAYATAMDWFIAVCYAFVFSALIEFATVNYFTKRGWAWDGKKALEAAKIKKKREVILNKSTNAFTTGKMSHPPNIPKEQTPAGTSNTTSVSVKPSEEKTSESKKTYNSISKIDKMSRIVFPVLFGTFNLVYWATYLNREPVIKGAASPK
Sequence (P47870 25-512 limits assumed, one chain of several): as the sequence (P47870 25-512 limits assumed, one chain of several) above
measurementNotes: FLIPR modulation of GABA response in cells expressing GABAA receptor subtype
testSettings: in presence of GABA, — = value not measurable
pEC50: −log10 of the molar value.

compound	pEC50
C[C@@]1(O)CC[C@@]2(C)[C@@H](CC[C@@H]3[C@@H]2CC[C@]2(C)[C@@H](C(=O)Cn4cc(C#N)cn4)CC[C@@H]32)C1	6.44
C[C@]1(O)CC[C@@]2(C)[C@@H](CC[C@@H]3[C@@H]2CC[C@]2(C)[C@@H](C(=O)Cn4cc(C#N)cn4)CC[C@@H]32)C1 [SPNC-019, reference compound]	5.92

* * *

measurementTarget: α4β1γ2 GABAA receptor (Homo sapiens, UniProt P18505+P48169)
Sequence (P48169 36-554, one chain of several): as the sequence (P48169 36-554, one chain of several) above
measurementNotes: FLIPR modulation of GABA response in cells expressing GABAA receptor subtype
testSettings: in presence of GABA, — = value not measurable
measurementName: EC50 (nM)

molecule	measurementName	observed
C[C@@]1(O)CC[C@@]2(C)[C@@H](CC[C@@H]3[C@@H]2CC[C@]2(C)[C@@H](C(=O)Cn4cc(C#N)cn4)CC[C@@H]32)C1 [CV-10155]	EC50	204

Every entry's value here was drawn from patent US20230210870A1.
